biological target: Ustilago maydis acetyl CoA carboxylase (ACCase) (Mycosarcoma maydis (Ustilago maydis), UniProt A0A0D1DYD5); assay: ACCase enzymatic assay (coupled PK/LDH, NADH OD340); format: biochemical; conditions: Table 1A; values marked a are a result of two or more experiments; read-out: ACCase Inhibitory Activity IC50
Sequence (A0A0D1DYD5 1-2185): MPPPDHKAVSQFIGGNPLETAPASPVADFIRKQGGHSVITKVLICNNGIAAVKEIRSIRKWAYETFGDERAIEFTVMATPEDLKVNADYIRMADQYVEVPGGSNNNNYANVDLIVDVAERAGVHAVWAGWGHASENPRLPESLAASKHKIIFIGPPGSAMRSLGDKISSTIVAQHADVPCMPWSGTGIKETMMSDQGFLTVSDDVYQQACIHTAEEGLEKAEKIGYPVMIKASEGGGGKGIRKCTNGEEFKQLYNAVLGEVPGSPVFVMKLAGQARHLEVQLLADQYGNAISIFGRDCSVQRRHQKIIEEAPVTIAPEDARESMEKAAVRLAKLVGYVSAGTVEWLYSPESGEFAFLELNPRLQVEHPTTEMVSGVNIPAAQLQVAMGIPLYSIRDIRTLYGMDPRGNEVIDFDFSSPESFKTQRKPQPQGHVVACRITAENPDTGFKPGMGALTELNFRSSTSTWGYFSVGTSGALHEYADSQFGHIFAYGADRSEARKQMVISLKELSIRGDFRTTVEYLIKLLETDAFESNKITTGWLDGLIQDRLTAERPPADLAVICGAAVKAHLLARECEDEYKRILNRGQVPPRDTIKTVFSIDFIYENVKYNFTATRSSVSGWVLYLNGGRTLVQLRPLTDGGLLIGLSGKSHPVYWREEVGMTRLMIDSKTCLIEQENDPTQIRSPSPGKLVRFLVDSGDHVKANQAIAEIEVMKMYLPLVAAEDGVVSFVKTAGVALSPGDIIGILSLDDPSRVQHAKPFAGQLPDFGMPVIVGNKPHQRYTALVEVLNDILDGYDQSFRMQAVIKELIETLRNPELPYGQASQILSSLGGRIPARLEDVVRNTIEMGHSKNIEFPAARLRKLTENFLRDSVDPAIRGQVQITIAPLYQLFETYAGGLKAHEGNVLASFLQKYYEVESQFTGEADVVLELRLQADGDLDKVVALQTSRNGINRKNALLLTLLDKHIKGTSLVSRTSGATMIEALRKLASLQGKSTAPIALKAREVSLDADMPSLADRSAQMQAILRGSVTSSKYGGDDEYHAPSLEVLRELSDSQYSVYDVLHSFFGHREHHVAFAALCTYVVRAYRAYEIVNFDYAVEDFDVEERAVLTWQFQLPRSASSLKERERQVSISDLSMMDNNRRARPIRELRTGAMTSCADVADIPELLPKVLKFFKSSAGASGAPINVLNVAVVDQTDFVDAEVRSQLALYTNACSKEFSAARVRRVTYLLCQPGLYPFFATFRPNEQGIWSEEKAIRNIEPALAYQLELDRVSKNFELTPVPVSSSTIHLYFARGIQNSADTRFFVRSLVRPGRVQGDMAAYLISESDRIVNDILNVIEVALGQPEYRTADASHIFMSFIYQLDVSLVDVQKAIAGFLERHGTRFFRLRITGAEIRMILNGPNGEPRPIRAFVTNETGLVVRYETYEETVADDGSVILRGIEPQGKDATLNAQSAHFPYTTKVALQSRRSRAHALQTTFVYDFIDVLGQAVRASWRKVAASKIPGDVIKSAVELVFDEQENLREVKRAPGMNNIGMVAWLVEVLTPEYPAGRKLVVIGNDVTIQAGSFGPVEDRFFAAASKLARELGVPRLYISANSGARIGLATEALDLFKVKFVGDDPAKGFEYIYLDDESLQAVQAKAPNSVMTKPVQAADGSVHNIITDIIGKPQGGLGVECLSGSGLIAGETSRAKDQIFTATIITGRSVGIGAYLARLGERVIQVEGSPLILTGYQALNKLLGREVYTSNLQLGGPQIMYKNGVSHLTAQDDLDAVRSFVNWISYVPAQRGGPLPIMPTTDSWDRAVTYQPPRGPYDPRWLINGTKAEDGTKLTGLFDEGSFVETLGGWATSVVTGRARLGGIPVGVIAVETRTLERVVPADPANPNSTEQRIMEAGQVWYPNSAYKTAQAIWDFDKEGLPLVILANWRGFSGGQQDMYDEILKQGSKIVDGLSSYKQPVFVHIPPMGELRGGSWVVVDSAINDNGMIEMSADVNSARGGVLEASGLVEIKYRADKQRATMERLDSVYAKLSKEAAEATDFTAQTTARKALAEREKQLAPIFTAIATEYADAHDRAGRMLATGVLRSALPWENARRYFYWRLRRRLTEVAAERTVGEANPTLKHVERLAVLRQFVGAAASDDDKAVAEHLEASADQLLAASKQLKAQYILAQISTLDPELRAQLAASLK
# Lookup of reported pIC50 keyed by entry
pIC50 is defined as minus the log10 of a concentration measured in mol/L.

{"Compound": "COc1ccc(-c2cc(C(F)(F)F)c(C#N)c(SC(C(=O)O)c3ccccc3)n2)c(OC)c1 (centres unmarked) [Formula Ia-viii]", "pIC50": 5.76}
{"Compound": "N#Cc1c(-c2ccc(Cl)cc2)cc(-c2cccs2)nc1SC(C(=O)O)c1ccccc1 (centres unmarked) [Formula Ia-i]", "pIC50": 6.43}
{"Compound": "N#Cc1c(-c2ccccc2)cc(-c2cccs2)nc1SC(C(=O)O)c1ccccc1 (centres unmarked) [Formula Ia-iv]", "pIC50": 6.31}

Query string: I have this compound here, COc1ccc(-c2cc(-c3cccs3)nc(SC(CO)c3ccccc3)c2C#N)cc1 (centres unmarked) [Formula IIb-i] , and I need its recorded pIC50.
Result string: 6.20

Query string: Another compound: N#Cc1c(SC(CO)c2ccccc2)nc2c(c1-c1cccs1)CCCC2 (centres unmarked) [Formula IIb-ii]
Result string: 5.39

Query string: Ok, now COc1ccc(-c2cc(-c3ccc[s+]3[O-])nc(OC(C(=O)O)c3ccccc3)c2C#N)cc1 (centres unmarked) [Formula Ia-xxviii]
Result string: 6.71

Query string: And the next one, COc1ccc(-c2cc(-c3cccs3)nc(SC(C(=O)NO)c3ccccc3)c2C#N)cc1 (centres unmarked) [Formula Ib-iii] ?
Result string: 6.05

Query string: What do you have for Cc1cc(C(F)(F)F)c(C#N)c(SC(C(=O)O)c2ccccc2)n1 (centres unmarked) [Formula Ia-xvi] ?
Result string: 5.11

###

system: Phytophthora capsici; test: Fungal growth inhibition assay, Phytophthora capsici; format: cell-based; conditions: 2 ppm, 48 hours, read-out: P. capsici % growth inhibition at 48 hours
Quantity measured: inhibition at 2 ppm (%)
Kindly provide the numeric value in % only, without the unit symbol.

Answered examples (3):
{"Compound": "N#Cc1c(SC(C(=O)O)c2ccccc2)nc(-c2cccs2)c2c1CCCC2 (stereo not shown)", "Test target": "Phytophthora capsici", "Val": 0}
{"Compound": "N#Cc1c(-c2ccccc2)cc(-c2cccs2)nc1SC(C(=O)O)c1ccccc1 (stereo not shown)", "Test target": "Phytophthora capsici", "Val": 0}
{"Compound": "N#Cc1c(-c2ccccc2)cc(-c2ccccc2)nc1SC(C(=O)O)c1ccccc1 (stereo not shown)", "Test target": "Phytophthora capsici", "Val": 16}

Query string: Could you tell me which inhibition at 2 ppm is on file for COc1ccc(-c2cc(C(F)(F)F)c(C#N)c(SC(C(=O)O)c3ccccc3)n2)cc1OC (stereo not shown) ?
Result string: 10

###

biological target: Ustilago maydis acetyl CoA carboxylase (ACCase) (Mycosarcoma maydis (Ustilago maydis), UniProt A0A0D1DYD5); assay: ACCase enzymatic assay (coupled PK/LDH, NADH OD340); type: biochemical; details: Table 1A; values marked a are a result of two or more experiments; read-out: ACCase Inhibitory Activity IC50
Quantity measured: IC50 (nM)
Field: numeric (nM). Do not append units.

Answered examples (2):
{"Compound": "CO[C@H]1CCCC[C@@H](c2ccccc2)OC(=O)[C@@H](C)[C@@]2(O)O[C@H]([C@@H](C)[C@H](O)[C@H]2OC)[C@@H](C)/C=C/[C@H]1OC [Soraphen, reference compound]", "IC50, nM": 45.8}
{"Compound": "N#Cc1c(-c2ccc(F)cc2)cc(-c2cccs2)nc1SC(C(=O)O)c1ccccc1 (stereo not drawn)", "IC50, nM": 563}

Query string: Which measured IC50 value corresponds to N#Cc1c(-c2ccc(Br)cc2)cc(-c2cccs2)nc1SC(C(=O)O)c1ccccc1 (stereo not drawn) ?
Result string: 212
